- target-or-test-system: Histone deacetylase
- method-summary: Inhibition of HDAC activity in human NB4 cells assessed as acetylation of histone H3 after 24 hrs by Western blot analysis
- Type: cell-based
- stated-conditions: nb-4
# Lookup of reported EC50 keyed by entry
quantity-kind: EC50 (nM)

1) O=C(CCCCCN1C(=O)c2ccccc2Oc2ccccc21)NO: 6240
2) O=C(CCCCCN1C(=O)c2ccccc2S(=O)(=O)c2ccc(Cl)cc21)NO: 30
3) COc1ccc2c(c1)N(CCCCCC(=O)NO)C(=O)c1ccccc1N2: 390
4) O=C(CCCCCN1C(=O)c2ccccc2Oc2ccc(Cl)cc21)NO: 380
5) O=C(CCCCCN1C(=O)c2ccccc2Sc2ccccc21)NO: 460
6) COc1ccc2c(c1)N(CCCCCC(=O)NO)C(=O)c1ccccc1O2: 200
7) COc1ccc2c(c1)N(CCCCCC(=O)NO)C(=O)c1ccccc1S2(=O)=O: 30
8) O=C(CCCCCN1C(=O)c2ccccc2S(=O)(=O)c2ccccc21)NO: 500
9) COc1ccc2c(c1)N(CCCCCC(=O)NO)C(=O)c1ccccc1S2: 190
10) O=C(CCCCCN1C(=O)c2ccccc2Nc2ccccc21)NO: 1300
11) O=C(CCCCCN1C(=O)c2ccccc2Sc2ccc(Cl)cc21)NO: 340
12) O=C(CCCCCN1C(=O)c2ccccc2Nc2ccc(Cl)cc21)NO: 840
13) CN1c2ccccc2C(=O)N(CCCCCC(=O)NO)c2ccccc21: 2650

----------
- target-or-test-system: Histone deacetylase (Homo sapiens) (UniProt Q13547+O15379+Q9UBN7+Q92769+Q9UQL6+Q8WUI4+Q9BY41+Q96DB2+P56524+Q9UKV0+Q969S8)
- method-summary: Inhibition of HDAC activity in human NB4 cells assessed as maximum acetylation of histone H3 at EC50 concentration after 24 hrs by Western blot analysis relative to control
- Format: cell-based
- stated-conditions: NB-4
Consider the reported Ratio of an entry and match it to a band in bin A = under 20, bin B = from 20 up to 200, bin C = 200 and over

1. COc1ccc2c(c1)N(CCCCCC(=O)NO)C(=O)c1ccccc1N2: bin A
2. O=C(CCCCCN1C(=O)c2ccccc2Sc2ccccc21)NO: bin B
3. O=C(CCCCCN1C(=O)c2ccccc2S(=O)(=O)c2ccc(Cl)cc21)NO: bin C
4. O=C(CCCCCN1C(=O)c2ccccc2S(=O)(=O)c2ccccc21)NO: bin C
5. COc1ccc2c(c1)N(CCCCCC(=O)NO)C(=O)c1ccccc1S2(=O)=O: bin C
6. O=C(CCCCCN1C(=O)c2ccccc2Oc2ccc(Cl)cc21)NO: bin A
7. O=C(CCCCCN1C(=O)c2ccccc2Oc2ccccc21)NO: bin A
8. CN1c2ccccc2C(=O)N(CCCCCC(=O)NO)c2ccccc21: bin A
9. COc1ccc2c(c1)N(CCCCCC(=O)NO)C(=O)c1ccccc1O2: bin B
10. O=C(CCCCCN1C(=O)c2ccccc2Nc2ccc(Cl)cc21)NO: bin B
11. O=C(CCCCCN1C(=O)c2ccccc2Nc2ccccc21)NO: bin B
12. COc1ccc2c(c1)N(CCCCCC(=O)NO)C(=O)c1ccccc1S2: bin A

----------
- target-or-test-system: Tubulin
- method-summary: Inhibition of HDAC activity in human NB4 cells assessed as acetylated tubulin after 24 hrs by Western blot analysis
- stated-conditions: nb-4
pEC50: −log10 of the molar value.
# Lookup of reported pEC50 keyed by entry
quantity-kind: pEC50

1) O=C(CCCCCN1C(=O)c2ccccc2Sc2ccc(Cl)cc21)NO: 6.82
2) COc1ccc2c(c1)N(CCCCCC(=O)NO)C(=O)c1ccccc1S2(=O)=O: 7.30
3) CN1c2ccccc2C(=O)N(CCCCCC(=O)NO)c2ccccc21: 5.56
4) COc1ccc2c(c1)N(CCCCCC(=O)NO)C(=O)c1ccccc1S2: 6.89
5) O=C(CCCCCN1C(=O)c2ccccc2S(=O)(=O)c2ccc(Cl)cc21)NO: 7.40
6) O=C(CCCCCN1C(=O)c2ccccc2Oc2ccc(Cl)cc21)NO: 6.36
7) O=C(CCCCCN1C(=O)c2ccccc2Nc2ccccc21)NO: 5.93
8) O=C(CCCCCN1C(=O)c2ccccc2S(=O)(=O)c2ccccc21)NO: 7.30
9) O=C(CCCCCN1C(=O)c2ccccc2Oc2ccccc21)NO: 6.54
10) O=C(CCCCCN1C(=O)c2ccccc2Sc2ccccc21)NO: 6.43
11) COc1ccc2c(c1)N(CCCCCC(=O)NO)C(=O)c1ccccc1O2: 7.05
12) O=C(CCCCCN1C(=O)c2ccccc2Nc2ccc(Cl)cc21)NO: 6.49
13) COc1ccc2c(c1)N(CCCCCC(=O)NO)C(=O)c1ccccc1N2: 6.60
